Data origin: ChEMBL document CHEMBL1130814

Kd reference
method.notes: Dissociation constant for binding affinity towards Concanavalin A determined by fluorescence anisotropy inhibition assay
Please format your answer as a value with the unit trailing.

These solved cases illustrate the format of a correct answer.
CO[C@H]1O[C@@H](CO[C@H]2S[C@@H](CO)[C@@H](O)[C@H](O)[C@H]2O)[C@@H](O)[C@H](O[C@H]2S[C@@H](CO)[C@@H](O)[C@H](O)[C@H]2O)[C@H]1O	376 µM
CO[C@H]1O[C@@H](CO[C@H]2O[C@@H](CO)[C@@H](O)[C@H](O)[C@H]2O)[C@@H](O)[C@H](O[C@H]2S[C@@H](CO)[C@@H](O)[C@H](O)[C@H]2O)[C@H]1O	7 µM

Please find the next molecule below.
Which Kd is listed for CO[C@H]1O[C@@H](CO[C@H]2O[C@@H](CO)[C@@H](O)[C@H](O)[C@H]2O)[C@@H](O)[C@H](O[C@H]2O[C@@H](CO)[C@@H](O)[C@H](O)[C@H]2O)[C@H]1O ? 3 µM
